Cited source: ChEMBL document CHEMBL3507680

Test: Human HepG2 cell viability assay in 384 well format
Assay type: toxicity, cell-based
Design: dose 125 nL, time 70.5 hour; concentration not given beside the values
Conditions: HepG2 cells, read-out: Inhibition

molecule	cytotoxicity at 70.5 h
O=C(NCCCn1cccn1)C1(c2ccc(Br)cc2)CC1	-2.34%
COc1ncccc1-c1nc(-c2ccccn2)nn1C1CCS(=O)(=O)C1 (stereo not given)	-7.2%
Cc1ccc(F)c(OC2(C(=O)O)CCN(C(=O)N3CCCC3)CC2)c1	-9.12%
COc1ccccc1C1(CNc2snc(Cl)c2C#N)CCCC1	19.8%
CN(C)CCN1CCOCC2(CCN(Cc3ccc[nH]3)CC2)C1	0.665%
c1ccc(COC[C@@H]2CCC[C@@]23CNCCO3)nc1	14.4%
COc1ccccc1N1CCN(c2nc(N)nc3[nH]cnc23)CC1	-11.3%
O=C(c1cnc(-c2cccnc2)nc1)N1CCC(c2ccncc2)CC1	-5.85%
Cc1cnn(CC2CCCCN2CC(=O)Nc2c(C)n[nH]c2C)c1 (stereo not given)	-5.21%
CC(=O)c1c(C)nn(S(=O)(=O)c2ccc(C)c(C)c2)c1C	-0.468%
O=C(O)c1ccccc1C1CCN(C2Cc3ccccc3C2)C1 (stereo not given)	-1.24%
CCN(CC)C(=O)CCCNC(=O)c1csc(NC2CC2)n1	-9.34%
CN(C)c1nccc(C2CCN(c3ncccn3)CC2)n1	-0.97%
N#Cc1ccc(NC(=O)C2CSCN2)cc1 (stereo not given)	-6.81%
Cn1c(C2CCCN2C(=O)CN2CCCC2=O)nc2ccccc21 (stereo not given)	-3.63%
COc1ccc(Cc2noc(C3=NN(C)C(=O)CC3)n2)cc1OC	-2.26%
CN1CCN(C(=O)c2ccnc(N3CCOC(C(F)(F)F)C3)c2)CC1 (stereo not given)	19%
CCOC(C)C(=O)Nc1ccnn1-c1ccccc1C (stereo not given)	7.99%
O=C(NCC1CC1)[C@@H]1C[C@@H]2CCN(Cc3ccoc3)C[C@@H]2O1	2.93%
Cc1cc(C(=O)N2CCO[C@H]3[C@H](Oc4ccccn4)CC[C@@H]32)c(C)[nH]1	-8.01%
Cc1ccc(-c2nc(C(=O)NCC3CCOC3)cs2)cc1 (stereo not given)	-15.2%
O=C(NCCc1ccn(-c2ccccc2)n1)N1CCCC(O)C1 (stereo not given)	1.8%
CCCn1ccnc1CN1CCCC(CC)(CO)C1 (stereo not given)	26.9%
Cc1cc(CN2CCCC(c3cc(C(F)(F)F)[nH]n3)C2)no1 (stereo not given)	-15.8%
CC(=O)NS(=O)(=O)c1ccc(F)c(C(F)(F)F)c1	-6.35%
COCC(C)(O)CNC(=O)c1cc(-c2cc(OC)ccc2OC)nn1C (stereo not given)	6.52%
CC1=C(C#N)C(=O)NC(=O)/C1=C\c1c(C)nn(-c2ccccc2)c1O	-2.78%
O=C(CCC(=O)N1CCC(Cc2ccc(CO)cc2)C1)c1ccccc1 (stereo not given)	-13.8%
CC(C)(C)c1nnc(CN2CCOC(Cn3cccn3)C2)o1 (stereo not given)	5.79%
O=C(C1COCCO1)N1CCN(Cc2ccc3c(c2)CCO3)CC1 (stereo not given)	1.06%
